Values were extracted from PubChem BioAssay (EPA / NIEHS).

target: human Phosphatase and Tensin Homolog (PTEN), PTEN (gene 5728); test: NVS_ENZ_hPTEN: NovaScreen (NVS) Enzymatic Assay for human Phosphatase and Tensin Homolog (PTEN) (AID 2283203)
Records with an inconclusive call do not appear. The source made the active and inactive calls. How the source made its calls: active means hit-call score of the fitted dose curve at least 0.9, where 1 is the maximum; inconclusive means response in the unintended direction; inactive means score below 0.9.
Entry note: the call must match one of class 1 for active, class 0 for inactive

Reference set, count: 2
Compound: CCCC(=NOCC)C1=C(O)CC(CC(C)SCC)CC1=O (centres undefined)
Discrete label: class 1

Compound: CCOc1nc(F)cc2nc(S(=O)(=O)Nc3c(Cl)cccc3Cl)nn12
Discrete label: class 1

Look up the recorded call for "N#CN=C1SCCN1Cc1ccc(Cl)nc1" in this test.
class 0

Query O=C1C2CC=CCC2C(=O)N1SC(Cl)(Cl)Cl (centres undefined) next
class 1

* * *

assay: ATG_ERE_CIS: Attagene CIS-FACTORIAL HepG2 Assay for Estrogen Response Element (ERE) (AID 2282940); details: HepG2 ERE cis-reporter, Attagene RNA transcript; actives raise or lower the signal
Calls of active or inactive are those of the source. The calls were made as follows: active = hit-call score of the fitted dose curve at least 0.9, where 1 is the maximum; inactive = score below 0.9.
Write down the outcome that applies. Available outcomes: active, inactive

Recorded results for 2 compounds are shown here.
Compound: N#Cc1c(Cl)cccc1Cl
Discrete label: inactive
--
Compound: CC(C)N1C(=O)N(c2ccccc2)CSC1=NC(C)(C)C
Discrete label: inactive

Give the logged outcome of this assay for the following compound: CCNP(=S)(OC)O/C(C)=C/C(=O)OC(C)C (configuration not stated)
active

"OC(c1ccc(Cl)cc1)(c1ccc(Cl)cc1)C(Cl)(Cl)Cl" , same question.
inactive

Check "C=CCOC(=O)C(C)(C)OC(=O)c1cc(-n2c(=O)cc(C(F)(F)F)n(C)c2=O)ccc1Cl" too.
inactive

Try the compound "CC1(C)CON(Cc2ccccc2Cl)C1=O"
active

Try this compound too: "COP(=O)(OC)O/C(C)=C/C(=O)N(C)C"
active

* * *

Target: human Peroxisome Proliferator-activated Receptor delta (PPARd), PPARD (gene 5467)
Assay: ATG_PPARd_TRANS: Attagene TRANS-FACTORIAL HepG2 Assay for human Peroxisome Proliferator-activated Receptor delta (PPARd) (AID 2283002)
Protocol: ATG_TRANS is a cell-based, multiplexed-readout assay that uses HepG2, a human liver cell line, with measurements taken at 24 hours after chemical dosing in a 24-well plate.ATG_PPARd_TRANS is one of 30 assay component(s) measured or calculated from the ATG_TRANS assay. […] This assay endpoint, ATG_PPARd_TRANS, was analyzed in the positive analysis fitting direction relative to DMSO as the negative control and baseline of activity. […]
Results filed as inconclusive are left out. The source made the active and inactive calls. Rule for the calls: active = hit-call score of the fitted dose curve at least 0.9, where 1 is the maximum; inconclusive = response in the unintended direction; inactive = score below 0.9.
Property: outcome

See these solved cases before continuing.
Compound: COP(=S)(OC)SCn1nnc2ccccc2c1=O
outcome: inactive

Compound: CCCN(CC)CC1COC2(CCC(C(C)(C)C)CC2)O1 (stereo not drawn)
outcome: inactive

Compound: CC(C)N1C(=O)N(c2ccccc2)CSC1=NC(C)(C)C
outcome: inactive

Compound: O=C(Nc1ccccc1-c1ccc(Cl)cc1)c1cccnc1Cl
outcome: inactive

Please report the recorded outcome for CCCCC(O)(Cn1cncn1)c1ccc(Cl)cc1Cl (stereo not drawn) .
inactive

Follow-up entry: "Cc1c(COC(=O)[C@@H]2[C@H](/C=C(\Cl)C(F)(F)F)C2(C)C)cccc1-c1ccccc1"
inactive

Lookup "Cc1cc(C)nc(Nc2ccccc2)n1"
inactive

Next: CC(C)=CC1C(C(=O)OCc2coc(Cc3ccccc3)c2)C1(C)C (stereo not drawn)
inactive

// repeat for "CN=C=S" and report
inactive

Thanks! And "Nc1cnn(-c2ccccc2)c(=O)c1Cl" ?
inactive

And the next one, "O=P(O)(O)CCCl" ?
inactive

Please do the same for "O=c1n(Cl)c(=O)n(Cl)c(=O)n1Cl" as well.
inactive

Subsequent entry: "CC(C)Nc1nc(Cl)nc(NC(C)C)n1"
inactive

* * *

read-out: MicroRNA 122 (MIR122), gene 406906; assay: LTEA_HepaRG_MIR122: Life Technologies and Expression Analysis (LTEA) Assay for MicroRNA 122 (MIR122) using HepaRG (AID 2283516); conditions: mRNA level, 48 h; actives raise or lower the signal; further: the transcript read is the microRNA miR-122
Active and inactive are the calls of the source. How the source made its calls: active means hit-call score of the fitted dose curve at least 0.9, where 1 is the maximum; inactive means score below 0.9.
Respond with a class label; see active, inactive

Illustrative cases are given below, each with its answer.
Compound: N#Cc1c(Cl)cccc1Cl
Discrete label: inactive

Compound: COCc1cnc(C2=NC(C)(C(C)C)C(=O)N2)c(C(=O)O)c1 (centres undefined)
Discrete label: inactive

Compound: CCCCC(C#N)(Cn1cncn1)c1ccc(Cl)cc1 (centres undefined)
Discrete label: inactive

Compound: CCNP(=S)(OC)O/C(C)=C/C(=O)OC(C)C (centres undefined)
Discrete label: inactive

Compound: CCOP(=O)(OCC)Oc1nc(Cl)c(Cl)cc1Cl
Discrete label: active

// param item: CC1(C)C(C(=O)OC(C#N)c2cccc(Oc3ccccc3)c2)C1(C)C (centres undefined) ; yields the recorded call
inactive

Then this compound: "COc1ccc(-c2ccccc2)cc1NNC(=O)OC(C)C"
inactive

Next: "CNC(=O)Oc1cccc2ccccc12"
inactive

* * *

Read-out: Keratin 19 (KRT19), KRT19 (gene 3880)
Test: LTEA_HepaRG_KRT19: Life Technologies and Expression Analysis (LTEA) Assay for Keratin 19 (KRT19) using HepaRG (AID 2283512)
Conditions: mRNA level, 48 h; actives raise or lower the signal
Protocol: LTEA_HepaRG is a cell based, multiplexed-readout assay that uses HepaRG, a human liver cell line, with measurements taken at 48 hours after chemical dosing on a 96-well plate.LTEA_HepaRG_KRT19 is one of 102 assay component(s) measured in the LTEA HepaRG cell culture assay. It is a marker of Cell proliferation, survival, death.Data from the assay component LTEA_HepaRG_KRT19 was analyzed into 1 endpoint. […]
The source made the active and inactive calls. Rule for the calls: active = hit-call score of the fitted dose curve at least 0.9, where 1 is the maximum; inactive = score below 0.9.
Your answer must be one of the following: label 1 for active, label 0 for inactive

Use the examples below as a reference point.
Compound: CC1(C)CCC(=Cc2ccc(Cl)cc2)C1(O)Cn1cncn1 (stereo unspecified)
Discrete label: label 0
--
Compound: N#Cc1c[nH]cc1-c1cccc2c1OC(F)(F)O2
Discrete label: label 1
--
Compound: CNC(=O)Oc1cccc2ccccc12
Discrete label: label 0

Lab log entry: "Clc1cccc(C(Cl)(Cl)Cl)n1" — outcome as called in the assay?
label 0

Entry CCCC(=NOCC)C1=C(O)CC(CC(C)SCC)CC1=O (stereo unspecified) please
label 0

What about "CCSC(=O)N1CCCCCC1" ?
label 0

Please answer likewise for "CSC(=O)c1c(C(F)F)nc(C(F)(F)F)c(C(=O)SC)c1CC(C)C"
label 0

Try this compound too: "CCNC(=O)NC(=O)C(C#N)=NOC"
label 0

Input O=C1C2CC=CCC2C(=O)N1SC(Cl)(Cl)Cl (stereo unspecified)
label 0

What about "CC(C)Nc1nc(Cl)nc(NC(C)C)n1" ?
label 0

Next: CCN(CC)C(=O)C(C)Oc1cccc2ccccc12 (stereo unspecified)
label 1

Would you mind doing "CC1(C)CON(Cc2ccccc2Cl)C1=O" as well?
label 0

And what about the compound CC1(C)C(C(=O)OC(C#N)c2cccc(Oc3ccccc3)c2)C1(C)C (stereo unspecified) ?
label 0

Repeat with CC(C)=CC1C(C(=O)OCc2coc(Cc3ccccc3)c2)C1(C)C (stereo unspecified)
label 0

Next compound up: "CCOc1nc(C(Cl)(Cl)Cl)ns1"
label 0

Next entry: "O=P(O)(O)CCCl"
label 0

Another: CCC(C)n1c(=O)[nH]c(C)c(Br)c1=O (stereo unspecified)
label 1

Next entry: COCC(=O)N(c1c(C)cccc1C)C(C)C(=O)OC (stereo unspecified)
label 0

* * *

read-out: xenobiotic metabolism (CYP1A1), CYP1A1 (gene 1543); assay: CLD_CYP1A1_6hr: CellzDirect (CLD) Gene Expression Assay for xenobiotic metabolism (CYP1A1) at 6 hours (AID 2283661)
Inconclusive results are not listed. Active and inactive are the calls of the source. Rule for the calls: active = hit-call score of the fitted dose curve at least 0.9, where 1 is the maximum; inconclusive = response in the unintended direction; inactive = score below 0.9.
Bench note: report the call from t = active, f = inactive

Examples with answers:
Compound: CCOc1nc(C(Cl)(Cl)Cl)ns1
Discrete label: t
--
Compound: CCOc1cc(C(C)(C)C)ccc1C1COC(c2c(F)cccc2F)=N1 (stereo not given)
Discrete label: f
--
Compound: CC(C)N1C(=O)c2ccccc2NS1(=O)=O
Discrete label: f
--
Compound: C=CCOC(=O)C(C)(C)OC(=O)c1cc(-n2c(=O)cc(C(F)(F)F)n(C)c2=O)ccc1Cl
Discrete label: f

Pending compound:
Please state the recorded outcome for this compound: "N#CN=C1SCCN1Cc1ccc(Cl)nc1"
f

* * *

assay: APR_HepG2_CellLoss_72hr: Apredica 72-hour HepG2 Assay for Cell Loss (AID 2282915); details: high-content imaging
Calls of active or inactive are those of the source. The calls were made as follows: active = hit-call score of the fitted dose curve at least 0.9, where 1 is the maximum; inactive = score below 0.9.
The reply should be one of these categories: class 1 (active), class 0 (inactive)

Compound: CC(C)(C)C(=O)C(Oc1ccc(Cl)cc1)n1cncn1 (configuration not stated)
Discrete label: class 1

Compound: CCCC(=NOCC)C1=C(O)CC(CC(C)SCC)CC1=O (configuration not stated)
Discrete label: class 0

Compound: COC(=O)NC(=S)Nc1ccccc1NC(=S)NC(=O)OC
Discrete label: class 1

Compound: CCCCC(O)(Cn1cncn1)c1ccc(Cl)cc1Cl (configuration not stated)
Discrete label: class 1

Assay result, entry "CC(C)NC(=O)N1CC(=O)N(c2cc(Cl)cc(Cl)c2)C1=O" — outcome?
class 0

Try this compound too: "Cc1c(COC(=O)[C@@H]2[C@H](/C=C(\Cl)C(F)(F)F)C2(C)C)cccc1-c1ccccc1"
class 0

Next: "CN=C=S"
class 1

Follow-up entry: "O=C(O)c1c(Cl)ccc2cc(Cl)cnc12"
class 0

// repeat for "Nc1c(Cl)c(Cl)nc(C(=O)O)c1Cl" and report
class 0

Would you mind doing CCOC(=O)C(C)OC(=O)c1cc(Oc2ccc(C(F)(F)F)cc2Cl)ccc1[N+](=O)[O-] (configuration not stated) as well?
class 1

Same for "CO/N=C(/C1=NOCCO1)c1ccccc1Oc1ncnc(Oc2ccccc2Cl)c1F"
class 1

Param item: "CCOc1nc(F)cc2nc(S(=O)(=O)Nc3c(Cl)cccc3Cl)nn12"
class 0

Moving on to "CC(C)N1C(=O)c2ccccc2NS1(=O)=O"
class 0

// next record "N#Cc1c(Cl)cccc1Cl"
class 0

Repeat with "Cc1cc(C)nc(Nc2ccccc2)n1"
class 1

Now consider CC1(C)CCC(=Cc2ccc(Cl)cc2)C1(O)Cn1cncn1 (configuration not stated) and answer again.
class 0
